Taken from patent USRE49495E1.

Biological target: T1, human HER2-Fc (R&D Systems, cat. no. 1129-ER-050) (human, UniProt P04626 23-652)
T1 construct: Bought; also called human epidermal growth factor receptor 2; not shown: Fc part of the bought fusion protein
Assay: SPR Biacore 2000, HER2-Fc on CM5 chip, 1:1 Langmuir; sample (0) before stability test
pKd: −log10 of the molar value.

Binder: Z17342 (designed binder) MGSSHHHHHHLQAEAKYAKEMRNAYWEIALLPNLTNQQKRAFIRKLYRQPEQSSELLSEAKKLSESQAPK
pKd: 8.74
